System: EKVX NSCLC
Experiment: NCI-60 one-dose screen, 48 h (100 = growth as untreated, 0 = no growth, -100 = all killed)
Settings: 10 µM unless noted
This is part of a sample that, as a whole, favours compounds with a hit. Of some 83,000 tested, about 20% had one in any assay.
growth vs 90%: less than gives met; not less than gives not met.

// query Given `CN(C)CCOc1ccc2c(c1)C(=O)/C(=C\c1ncc([N+](=O)[O-])n1C)C2` , is recorded growth strictly lower than 90%?
// result met

// query Please let me know if `C[n+]1c(/C=C/c2ccc([N+](=O)[O-])cc2)ccc2ccccc21` shows growth below 90%.
// result met

// query # check: growth < 90% for `O=[N+]([O-])c1ccc2c(N=Nc3ccc4ccccc4c3O)c(O)cc(S(=O)(=O)O)c2c1`
// result not met

// query Please let me know if `CN=C(N)N/N=C(\C)c1ccc2c(c1)Cc1cc(/C(C)=N/NC(N)=NC)ccc1-2` shows growth below 90%.
// result met

// query Below 90% on growth? Entry `COc1ccc(N=N/N=c2\sc3cc(OC)ccc3n2C)cc1`
// result met

// query Criterion: growth strictly below 90%. Is it met by `OC(CNc1ccnc2cc(Cl)ccc12)CNc1ccnc2cc(Cl)ccc12` ?
// result met

// query Quick check: does N#CC1C(=O)SC2c3ccccc3C(=O)c3ccccc3C12 (configuration not stated) have growth under 90%?
// result not met

// query Determine if `O=C(/C=C/c1cccc(Cl)c1)c1ccccc1` shows growth strictly lower than 90%.
// result not met

* * *

Tested on: NCI-H522 lung
Assay: NCI-60 one-dose screen, 48 h
Details: 10 µM unless noted
Compounds without any hit were thinned out: in the full panel of roughly 83,000, 20% have a hit. Activity calls are given as the source filed them. How the source made its calls: active means growth percent below 10; inactive means the rest.
Please reply with one of these outcomes: TRUE for active, FALSE for inactive

// query Please indicate how the test categorized `CN(C)CCOc1ccc2c(c1)C(=O)/C(=C\c1ncc([N+](=O)[O-])n1C)C2` .
// result TRUE

// query Would you mind telling me which call this test gave CC1OC2CC(=O)OC2C2=C1C(=O)c1c(O)cccc1C2=O (stereo not given) ?
// result TRUE

// query # fetch the recorded call for `Oc1c(Br)c(Br)c(O)c(Br)c1Br` here
// result TRUE

// query # outcome recorded in this test, key = `CCCCCCCCCCCCCCCCOP(=O)([O-])OCC[N+](C)(C)C`
// result TRUE

// query How did this test come out for `C[n+]1c(/C=C/c2ccc([N+](=O)[O-])cc2)ccc2ccccc21` ?
// result FALSE

// query Assay outcome for `O=C1c2ccccc2C(=O)N1c1ccccc1` : what was it?
// result FALSE

// query For this molecule, state the assay outcome: `N[C@H](C(=O)O)[C@@H]1CC(Cl)=NO1`
// result FALSE

// query Check the results log: what was the call for `Nc1ccc(SSc2ccc(N)cc2)cc1` ?
// result FALSE

// query What classification did `CCOC(=O)c1c(C)[nH]c(CO)c1C` end up with in this test?
// result FALSE

// query Which result was noted for this molecule in the test: CC1OC(OC2C(OC3CCC4(C)C(CCC5(C)C4CC=C4C6CC(C)(C)CCC6(CO)C(O)CC45C)C3(C)C)OC(C(=O)O)C(OC3OC(COC4OC(CO)C(O)C(O)C4O)C(O)C(O)C3O)C2O)C(O)C(O)C1O (stereo not given)
// result TRUE

* * *

Test system: MALME-3M melanoma
Test: NCI-60 one-dose screen, 48 h
Details: 10 µM unless noted
Compounds without any hit were thinned out: in the full panel of roughly 83,000, 20% have a hit. Calls of active or inactive are those of the source. The calls were made as follows: active = growth percent below 10; inactive = the rest.
Choose the fitting class; nothing outside y (active), n (inactive) is accepted.

// query Look up the recorded call for `CCOc1ccc(-c2nc3ccc(-c4nc5ccc(N6CCN(C)CC6)cc5[nH]4)cc3[nH]2)cc1` in this test.
// result y

// query Called result for `CC(=Nc1ccc(N(C)C)cc1)c1ccccc1`
// result n

// query Name the outcome recorded for `CCCCCCCCCCCCCCCCN(CC)CC` in the assay.
// result y

// query Which outcome was entered for the molecule `Cn1c2c(c3ccccc31)CCN1C[C@@H]3CCCC[C@H]3C[C@@H]21` in this test?
// result y

// query Could you please tell me the result logged for `O=C(Nc1ccccc1)c1cc(Cl)ccc1O` in this assay?
// result n

// query # outcome recorded in this test, key = `O=C1N[C@H]2[C@H](CS[C@H]2CCCCC(=O)N(CCP(c2ccccc2)c2ccccc2)CCP(c2ccccc2)c2ccccc2)N1`
// result n

// query Can you look up the reported call for `Cc1ccc(N=C=C(c2ccccc2)c2ccccc2)cc1` for me?
// result n

// query Which outcome was entered for the molecule `Cc1c2ccccc2c(C)c2c1ccc1ccccc12` in this test?
// result n

// query Dear all, I need the recorded test outcome for `C[N+](C)=c1ccc2nc3c(cc(NCCCNc4cc5oc6cc(=[N+](C)C)ccc-6nc5c5ccccc45)c4ccccc43)oc-2c1` , thank you.
// result n

// query Just curious, what result did `Nc1ccc(SSc2ccc(N)cc2)cc1` get here?
// result n

// query Field: outcome | Entry: `O=[N+]([O-])c1ccc2c(N=Nc3ccc4ccccc4c3O)c(O)cc(S(=O)(=O)O)c2c1`
// result n

// query I would be grateful if you could indicate the recorded call for `COC(=O)c1nc(=S)[nH]c(C(=O)OC)c1C(=O)c1ccccn1` .
// result n

// query Please share the test call associated with `C[n+]1c(/C=C/c2ccc([N+](=O)[O-])cc2)ccc2ccccc21` .
// result n

// query // param item: `COc1ccc(N=N/N=c2\sc3cc(OC)ccc3n2C)cc1` ; yields the recorded call
// result n

// query Check the results log: what was the call for `CN=C(N)N/N=C(\C)c1ccc2c(c1)Cc1cc(/C(C)=N/NC(N)=NC)ccc1-2` ?
// result y

// query GET /call?item= `COC(=O)c1nc(=S)[nH]c(C(=O)OC)c1C(=O)c1ccc2ccccc2c1` returns the recorded outcome of this test.
// result n

// query Assay outcome for `Oc1ccc(/C=N/NC(=S)Nc2ccccc2)nc1` : what was it?
// result n

// query # lookup: test call for CC1OC(OC2C(OC3CCC4(C)C(CCC5(C)C4CC=C4C6CC(C)(C)CCC6(CO)C(O)CC45C)C3(C)C)OC(C(=O)O)C(OC3OC(COC4OC(CO)C(O)C(O)C4O)C(O)C(O)C3O)C2O)C(O)C(O)C1O (stereo unspecified)
// result y

// query Recorded call for `O=Nc1ccccc1N=O` ?
// result n

// query // param item: `NC(=S)N/N=C\c1nccc2c(C(F)(F)C(F)(F)C(F)(F)F)cccc12` ; yields the recorded call
// result y

// query What outcome does the record of this test show for `CCOC(=O)c1c(C)[nH]c(CO)c1C` ?
// result n

* * *

Test system: EKVX NSCLC
Experiment: NCI-60 one-dose screen, 48 h
Conditions: 10 µM unless noted
The panel holds about 83,000 compounds, 20% with a hit somewhere; the sample as a whole holds those more often. The source made the active and inactive calls. The calls were made as follows: active = growth percent below 10; inactive = the rest.
Outcomes you can answer with include only these: active, inactive

// query State the result this test recorded for `NC(=O)/C=C/C(=O)c1c(Cl)cccc1Cl` .
// result active

// query Short answer needed: outcome of this test for `Nc1nc(N)c2c(ccc3c2ccn3Cc2cccc([N+](=O)[O-])c2)n1` ?
// result active

// query Given `Oc1c(Cl)c2ccccc2c2ccccc12` , state the outcome it received in this test.
// result inactive

// query Entry `CCC(CC)COC(=O)c1ccc(O)c(O)c1` : call = ?
// result inactive

// query Hi, do you know how `Oc1c(Br)c(Br)c(O)c(Br)c1Br` came out in this test?
// result inactive

// query // outcome(item) with item = `CCN(CC)CCOc1ccc(-c2nc3cc(Cl)ccc3s2)cc1`
// result inactive

// query # lookup: test call for `Cc1cc(C(C)(CC(C)C)c2ccc(O)c(C)c2)ccc1O`
// result inactive

// query # outcome recorded in this test, key = `NC(=S)N/N=C/c1ccc(Cl)s1`
// result inactive

// query Hello, I am checking results. What call was entered for `COC(=O)c1nc(=S)[nH]c(C(=O)OC)c1C(=O)c1ccccn1` ?
// result inactive

// query Kindly provide the recorded test outcome for the following compound: `CCOC(=O)/C=C/c1ccc([N+](=O)[O-])o1`
// result inactive

// query What did this assay record as the result for CC1OC2CC(=O)OC2C2=C1C(=O)c1c(O)cccc1C2=O (configuration not stated) ?
// result active

// query Identify the outcome logged in this assay for the compound shown: `CNc1ccc(N)cc1`
// result inactive

// query In this assay, the call recorded for C1=C(c2ccccc2)C(c2ccc(OCCN3CCCCC3)cc2)Oc2ccccc21 (configuration not stated) was what?
// result inactive

// query Look up the recorded call for `CC(=O)ON=C1C=CC(=C(C#N)c2ccccc2)C=C1` in this test.
// result inactive

// query Any idea what this test logged for CCC(c1cccc(O)c1)C(CC)c1cccc(O)c1 (configuration not stated) ?
// result inactive

// query Kindly provide the recorded test outcome for the following compound: `CC(C)c1ccc2nc3ccc(C(=O)NCCN4CCN(c5ccccc5)CC4)cn3c(=O)c2c1`
// result inactive

// query Lab log entry: `O=C(/C=C\c1cc(Br)ccc1O)/C=C/c1cc(Br)ccc1O` — outcome as called in the assay?
// result active

// query Entry `O=C1C=CC(=O)N1C1c2ccccc2-c2ccccc21` : call = ?
// result inactive

// query Fill in: this test's call for `COc1ccccc1/C=C\C(=O)c1ccccc1` is ___
// result inactive

// query So what was the verdict on `c1ccc2c(c1)Nc1cc3ccccc3cc1N2` in this test?
// result inactive

// query Please state the recorded outcome for this compound: `NC1=CC(=O)c2ccccc2C1=O`
// result inactive

// query Per the records of this test, what outcome belongs to `O=C(Nc1cccc(Br)c1)Oc1ccc(Cl)c2cccnc12` ?
// result active

// query Please indicate how the test categorized `S=C(N/N=C/c1ccccn1)Nc1ccccn1` .
// result inactive

// query Record lookup: outcome of this test for `Cn1c2ccccc2c2nnc(N/N=C/c3ccccn3)nc21` ?
// result active

// query Per the records of this test, what outcome belongs to `CC(C)(C)CC(C)(C)c1ccc(OCCSC(=N)N)cc1` ?
// result inactive

// query Write down the call the test reported for this compound. Item: `O=C(Nc1ccccc1)c1cc(Cl)ccc1O`
// result inactive

// query Hi team, can someone confirm the assay call for `O=C1c2ccccc2C(=O)c2sc(Nc3ccc(Cl)cc3)nc21` ?
// result inactive
